- subjectOfTest: amyloid β-protein 42 (Aβ42) (Homo sapiens, UniProt P05067)
- Sequence (P05067 672-713): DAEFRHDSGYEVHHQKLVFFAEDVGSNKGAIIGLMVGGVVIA
- assayProcedure: ThT fluorescence fibrillation assay of synthetic Aβ[…]); supported by DSC Tm shifts, CD and AFM
pIC50: −log10 of the molar value.
observationType: pIC50

[[record]]
compound = "COC(=O)[C@]1(C)C(OC2OC(CO)C(O)C(O)C2O)[C@@H](O)C[C@@]2(C)C1CC[C@]1(C)C2CC=C2[C@@H]3CC(C)(C)CCC3(C(=O)O)CC[C@]21C (stereo partly shown) [DA, doliroside A]"
result = 4.58

